# TARGET_SYSTEM: GST-ASPG (human ASPG, 60 kDa Lysophospholipase) (Homo sapiens, UniProt Q86U10)
# Sequence (Q86U10 whole entry): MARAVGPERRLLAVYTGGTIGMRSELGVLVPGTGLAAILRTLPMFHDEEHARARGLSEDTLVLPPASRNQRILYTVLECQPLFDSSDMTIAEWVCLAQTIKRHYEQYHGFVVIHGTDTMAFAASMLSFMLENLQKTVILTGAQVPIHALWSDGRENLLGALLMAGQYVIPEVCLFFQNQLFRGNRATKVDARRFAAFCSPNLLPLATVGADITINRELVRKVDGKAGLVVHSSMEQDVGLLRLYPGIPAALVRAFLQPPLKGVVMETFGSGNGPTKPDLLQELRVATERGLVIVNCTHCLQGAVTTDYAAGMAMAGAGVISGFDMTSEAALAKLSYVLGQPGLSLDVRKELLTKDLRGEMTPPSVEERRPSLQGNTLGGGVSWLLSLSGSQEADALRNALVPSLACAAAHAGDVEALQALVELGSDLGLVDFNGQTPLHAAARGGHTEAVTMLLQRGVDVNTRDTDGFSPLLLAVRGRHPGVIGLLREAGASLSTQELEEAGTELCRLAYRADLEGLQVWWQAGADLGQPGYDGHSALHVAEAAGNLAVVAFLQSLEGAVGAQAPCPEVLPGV
MEASUREMENT_LABEL: Ki (mM)
Report as a plain number; the unit mM is understood.

What does the data say about its Ki? Entry: NC(=O)C[C@@H](N)C(=O)O
71
